- MEASUREMENT_DESCRIPTION: chemical genetic growth profiling, strain panel (AID 1159580);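 note: tested at 20 µM; growth read once vehicle control cultures reached saturation at 30 °C; 1 = growth at the plate median or of vehicle wells; lower values mean less growth of the strain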
- CONDITION_SET: S. cerevisiae deletion strains, growth OD, locus YKR001C, strain vps1
The campaign covered roughly 5,500 compounds. About 2,000 (36%) were called active. Roughly 18% stayed inconclusive and do not appear here. Cut-off read from the data, not from the text of the source: active = normalized growth mostly below about 0.91 (no sharp cut-off); inconclusive = no clear call, values can overlap the other calls; inactive = mostly above about 0.92. The list shows a part of the results.
Tick one outcome: active, inactive

> print(dat)
                                   molecule  discrete.label
1  CC(C)=CCCC(C)C1CC[C@@]2(C)C3=C(CC[C@]12C)C1(C)CC[C@H](O)C(C)(C)C1CC3 (some centres undefined)        inactive
2                   O=C(OCc1ccccc1)c1ccccc1          active
3  CC(C)=CCCC(C)[C@@H]1CC[C@]2(C)C3=C(CC[C@@]12C)C1(C)CC[C@H](O)C(C)(C)C1CC3 (some centres undefined)        inactive

Task: Entry CC(C)c1ccc2c(c1)CCC1C(C)(C(N)=O)CCCC21C (centres undefined) : call = ?
Output: active

---

- MEASUREMENT_DESCRIPTION: chemical genetic growth profiling, strain panel (AID 1159580)
- CONDITION_SET: S. cerevisiae deletion strains, growth OD, locus YJL115W, strain asf1, stronger effect = lower value
About 2,000 (36%) of roughly 5,500 compounds were called active. Inconclusive results (about 18%) are left out. Some of the results follow.
ASSAY_METRIC: normalized growth
Give a plain numeric answer without units written out.

Worked set:
> print(dat)
                                   compound  quantitative.result
1  C/C=C\C1=C(C(=O)O)N2C(=O)C(NC(=O)C(N)c3ccc(O)cc3)C2SC1 (stereo not drawn)                0.999
2         CN(C)CCCN1c2ccccc2CCc2ccc(Cl)cc21                0.997

Pending compound:
Entry NS(=O)(=O)c1cc2c(cc1Cl)NC(CSCc1ccccc1)=NS2(=O)=O , normalized growth reported as 1.02

---

Reported normalized growth by item:
- MEASUREMENT_DESCRIPTION: chemical genetic growth profiling, strain panel (AID 1159580)
- CONDITION_SET: S. cerevisiae deletion strains, growth OD, locus YER111C, strain swi4, stronger effect = lower value
In all, about 5,500 compounds went through this assay and about 2,000 (36%) were called active. Roughly 18% stayed inconclusive and do not appear here. The list shows a part of the results.

> print(dat)
                                   compound       assay.metric            result
1                   O=C(OCc1ccccc1)c1ccccc1  normalized growth  0.957 (inactive)
2           COc1cc(C/C=C/c2ccccc2)c(OC)cc1O  normalized growth  0.978 (inactive)
3  CC(C)=CCc1c2c(c3occ(-c4ccc(O)c(O)c4)c(=O)c3c1O)C=CC(C)(C)O2  normalized growth  0.939 (inactive)
4  CC(=O)O[C@H]1CCC2(C)C3=C(CCC2C1(C)C)[C@]1(C)CCC(C(C)CCC=C(C)C)[C@@]1(C)CC3 (some centres not stated)  normalized growth  0.986 (inactive)
5  CC(C)=CC1C(C(=O)O)C1(C)C (configuration not stated)  normalized growth  0.972 (inactive)
6                           NCC(=O)c1ccccc1  normalized growth  0.992 (inactive)

// recorded normalized growth for CC(=O)O[C@H]1CCC2(C)C3=C(CCC2C1(C)C)[C@@]1(C)CC[C@@H](C(C)CCC=C(C)C)[C@]1(C)CC3 (some centres not stated) : 1.04 (inactive)

For reference, reported normalized growth for CC(N=C(NC#N)Nc1ccncc1)C(C)(C)C (configuration not stated) stands at 0.995 (inactive)

The compound listed as C[C@H](CCC(=O)O)[C@H]1CCC2C3C(=O)CC4CC(=O)CC[C@]4(C)C3CC(=O)[C@@]21C (some centres not stated) shows normalized growth equal to 0.974 (inactive)

Briefly, normalized growth measured for CCN(CC)CCOCCOC(=O)C1(c2ccccc2)CCCC1 : 0.985 (inactive)

---

- MEASUREMENT_DESCRIPTION: chemical genetic growth profiling, strain panel (AID 1159580);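 note: tested at 20 µM; growth read once vehicle control cultures reached saturation at 30 °C; 1 = growth at the plate median or of vehicle wells; lower values mean less growth of the strain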
- CONDITION_SET: S. cerevisiae deletion strains, growth OD, locus YMR263W, strain SAP30, stronger effect = lower value
The whole screen tested about 5,500 compounds, of which about 2,000 (36%) were called active. About 18% were inconclusive and are not listed. The list shows a part of the results.
ASSAY_METRIC: normalized growth
Note: the reply should be a number with no unit written.

> print(dat)
                                   compound  quantitative.result
1       NCCCCCCNS(=O)(=O)c1cccc2c(Cl)cccc12                 1.01
2  NCC(O)(CS(=O)(=O)O)c1ccc(Cl)cc1 (configuration not stated)                    1
3    CSc1ncc(C#N)c2nc(-c3ccc(N(C)C)cc3)nn12                 1.01

Item: CCOC(CN(c1ccc(F)cc1)S(=O)(=O)c1ccc(F)cc1F)OCC | normalized growth: 0.987

So, CCOC(=O)CSc1nc2cc(C(F)(F)F)cnc2n1C ? Its normalized growth was 0.99

---

Listed below: normalized growth values for each entry.
- MEASUREMENT_DESCRIPTION: chemical genetic growth profiling, strain panel (AID 1159580);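 note: tested at 20 µM; growth read once vehicle control cultures reached saturation at 30 °C; 1 = growth at the plate median or of vehicle wells; lower values mean less growth of the strain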
- CONDITION_SET: S. cerevisiae deletion strains, growth OD, locus YER155C, strain BEM2 (second series), stronger effect = lower value
Screen size: about 5,500 compounds; about 2,000 (36%) were called active. Inconclusive results (about 18%) are left out. The list shows a part of the results.
Reply briefly: the number, and no unit.

Examples with their reported normalized growth follow.
COMPOUND	QUANTITATIVE_RESULT
CS(=O)(=O)Nc1ccc([N+](=O)[O-])cc1Oc1ccccc1	0.991
CC(C)NCC(O)COc1ccc(COCCOC(C)C)cc1 (stereo not given)	1
CCC(C)C(=O)OC1[C@@H]2CC3=C4CC(=O)O[C@@H](c5ccoc5)[C@]4(C)CCC3[C@@](C)(C2=O)[C@@H](CC(=O)OC)C1(C)C (stereo not given in full)	1.01

Lab note: measured normalized growth of CC(C)=CC1C(C(=O)O)C1(C)C (stereo not given) was 0.972

What the record says about CC1=CC(=O)c2ccccc2C1=O : normalized growth is 0.993

---

- MEASUREMENT_DESCRIPTION: chemical genetic growth profiling, strain panel (AID 1159580);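 note: tested at 20 µM; growth read once vehicle control cultures reached saturation at 30 °C; 1 = growth at the plate median or of vehicle wells; lower values mean less growth of the strain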
- CONDITION_SET: S. cerevisiae deletion strains, growth OD, locus YOR265W, strain rbl2
Out of some 5,500 compounds screened, about 2,000 (36%) were called active. Inconclusive results (about 18%) are left out. Cut-off read from the data, not from the text of the source: active = normalized growth mostly below about 0.91 (no sharp cut-off); inconclusive = no clear call, values can overlap the other calls; inactive = mostly above about 0.92. This is one part of the list.
Can you answer with just one of these options? label 1 (active), label 0 (inactive)

COMPOUND	DISCRETE_LABEL
NS(=O)(=O)c1cc2c(cc1Cl)NC(CSCc1ccccc1)=NS2(=O)=O	label 0
CS(=O)(=O)Nc1ccc([N+](=O)[O-])cc1Oc1ccccc1	label 0
CC(=O)O[C@H]1CC[C@@]2(C)C(C[C@@H](OC(C)=O)[C@@]3(C)C4=CC(=O)O[C@@H](c5ccoc5)[C@]4(C)CCC23)C1(C)C (stereo partly specified)	label 0
CN(C)CCCN1c2ccccc2Sc2ccccc21	label 0
O=P1(N(CCCl)CCCl)NCCCO1 (stereo unspecified)	label 0
CC(C)c1ccc2c(c1)CCC1C(C)(C(N)=O)CCCC21C (stereo unspecified)	label 0
CCN1CCN(C(=O)NC(C(=O)N[C@@H]2C(=O)N3[C@@H]2SC(C)(C)[C@@H]3C(=O)O)c2ccccc2)C(=O)C1=O (stereo partly specified)	label 0
CC(C)=CCCC(C)[C@@H]1CC[C@]2(C)C3=C(CC[C@@]12C)C1(C)CC[C@H](O)C(C)(C)C1CC3 (stereo partly specified)	label 1

Task: State the result this test recorded for CC(=O)O[C@@H]1CC2C(C)(C)[C@H](O)C=C[C@]2(C)C2CC[C@]3(C)C(=CC(=O)O[C@H]3c3ccoc3)[C@@]21C (stereo partly specified) .
Output: label 0

Task: Call for entry CC1(C)CC2C1CC[C@]1(CBr)CCC3C(CC(=O)O)C(=O)O[C@@]32C1 (stereo partly specified) :
Output: label 0

Task: What call does the record list for CC(C)NCC(O)COc1ccc(COCCOC(C)C)cc1 (stereo unspecified) ?
Output: label 0

Task: Status in this test for C=C1C[C@]23C[C@@]1(O)CC[C@H]2[C@@]12C=C[C@H](O)[C@@](C)(C(=O)O1)[C@H]2[C@@H]3C(=O)O ?
Output: label 0

Task: Call for entry CN(C)[C@@H]1C(=O)C(C(N)=O)=C(O)[C@@]2(O)C(=O)C3=C(O)c4c(O)ccc(Cl)c4[C@@](C)(O)[C@H]3C[C@@H]12 :
Output: label 0

Task: Write down the call the test reported for this compound. Item: CC(C)c1ccc2c(c1)CCC1[C@](C)(CN)CCC[C@]21C (stereo partly specified)
Output: label 0

Task: Outcome logged for CN(C)CCCN1c2ccccc2CCc2ccc(Cl)cc21 in this assay:
Output: label 0

Task: // outcome(item) with item = CN(C)CCCN1c2ccccc2CCc2ccccc21
Output: label 0

Task: For CC1=CCCC2C1(C)CCC(C)C2(C)CC/C(C)=C/C[n+]1cn(C)c2c(N)ncnc21 (stereo unspecified) , what call appears in the results of this test?
Output: label 0

Taken from PubChem BioAssay AID1159580.
